A short record of Ki observed with E. coli gyrase A2B2 (Escherichia coli, UniProt P0AES6) follows.

molecule: COC(=O)NCc1cc(-c2sc(-c3ccccc3)nc2N2CCNCC2)n[nH]1
test_result: > 1500 nM

I need Ki for every entry listed below, if you could help.
1. CCOC(=O)c1cc(-c2sc(-c3ccccc3)nc2CN(CC)CC)n[nH]1
2. COC(=O)NCc1cc(-c2sc(-c3ccccc3)nc2N2CCN(Cc3ccccc3)CC2)n[nH]1
3. CCOC(=O)c1cc(-c2sc(-c3ccccc3)nc2CN2CCNCC2)n[nH]1
4. COC(=O)NCc1cc(-c2sc(-c3ccccc3)nc2N2CCCCC2C)n[nH]1 (centres unmarked)
5. CC(C)OC(=O)NCc1cc(-c2sc(-c3ccccc3)nc2-c2ccccc2)n[nH]1
6. CCOC(=O)c1cc(-c2cnn(-c3cccc(Cl)c3)c2C)n[nH]1

Result string:
["> 1500 nM", "500 to 1500 nM", "500 to 1500 nM", "< 500 nM", "> 1500 nM", "> 1500 nM"]

Query string: # input molecule: `CCOC(=O)c1cc(-c2sc(-c3ccccc3)nc2CN2CCOCC2)n[nH]1` ; wanted: its Ki
Result string: > 1500 nM
